Values from patent US10808003B2

Assay: Hydrodynamic radius of micelles by dynamic light scattering (DLS)
Assay type: physicochemical
Conditions: micelles formed by each agent at 1.0 wt %
experimental-endpoint: Rh (nm), hydrodynamic radius of micelles
Dear colleague, please return just the value in nm, with no unit written.

// below: answered compounds
CCCCCCCCCCCCCCOCC(CO[C@@H]1OC(CO)[C@@H](O)C(O)C1O)(CO[C@@H]1OC(CO)[C@@H](O)C(O)C1O)CSCC(COCCCCCCCCCCCCCC)(CO[C@@H]1OC(CO)[C@@H](O)C(O)C1O)CO[C@@H]1OC(CO)[C@@H](O)C(O)C1O (stereo partly drawn) : 3.8
CCCCCCCCCCCOCC(CO[C@@H]1OC(CO)[C@@H](O)C(O)C1O)(CO[C@@H]1OC(CO)[C@@H](O)C(O)C1O)CSCC(COCCCCCCCCCCC)(CO[C@@H]1OC(CO)[C@@H](O)C(O)C1O)CO[C@@H]1OC(CO)[C@@H](O)C(O)C1O (stereo partly drawn) : 3.0

Rh (nm), hydrodynamic radius of micelles recorded for this compound, CC1CCC2(OC1)OC1CC3C4CC=C5CC(OCC(CO[C@@H]6OC(CO)[C@@H](O[C@H]7OC(CO)[C@@H](O)C(O)C7O)C(O)C6O)(CO[C@@H]6OC(CO)[C@@H](O[C@H]7OC(CO)[C@@H](O)C(O)C7O)C(O)C6O)CSCC(COC6CCC7(C)C(=CCC8C7CCC7(C)C8CC8OC9(CCC(C)CO9)C(C)C87)C6)(CO[C@@H]6OC(CO)[C@@H](O[C@H]7OC(CO)[C@@H](O)C(O)C7O)C(O)C6O)CO[C@@H]6OC(CO)[C@@H](O[C@H]7OC(CO)[C@@H](O)C(O)C7O)C(O)C6O)CCC5(C)C4CCC3(C)C1C2C (stereo partly drawn) , is 3.1

====

Test: Critical micelle concentration by fluorescent staining with diphenylhexatriene (DPH)
Assay type: physicochemical
Conditions: aqueous solution
Below, each of the compounds is paired with its reported CMC value.

Consider the following illustrative entries.
CCCCCCCCCCCC(CCCCCCCCCCC)COCC(CO[C@@H]1OC(CO)[C@@H](O[C@H]2OC(CO)[C@@H](O)C(O)C2O)C(O)C1O)(CO[C@@H]1OC(CO)[C@@H](O[C@H]2OC(CO)[C@@H](O)C(O)C2O)C(O)C1O)CSCC(COCC(CCCCCCCCCCC)CCCCCCCCCCC)(CO[C@@H]1OC(CO)[C@@H](O[C@H]2OC(CO)[C@@H](O)C(O)C2O)C(O)C1O)CO[C@@H]1OC(CO)[C@@H](O[C@H]2OC(CO)[C@@H](O)C(O)C2O)C(O)C1O (stereo partly drawn) [TMM-C24] : ~0.0015 mM
CCCCCCCCCCCCCC(CCCC(CCCCCCCCCCCCC)(CO[C@@H]1OC(CO)[C@@H](O)C(O)C1O)CO[C@@H]1OC(CO)[C@@H](O)C(O)C1O)(CO[C@@H]1OC(CO)[C@@H](O)C(O)C1O)CO[C@@H]1OC(CO)[C@@H](O)C(O)C1O (stereo partly drawn) [TMG-A13] : ~0.006 mM

Query CCCCCCCCCCC(CCCCCCCCCC)COCC(CO[C@@H]1OC(CO)[C@@H](O[C@H]2OC(CO)[C@@H](O)C(O)C2O)C(O)C1O)(CO[C@@H]1OC(CO)[C@@H](O[C@H]2OC(CO)[C@@H](O)C(O)C2O)C(O)C1O)CSCC(COCC(CCCCCCCCCC)CCCCCCCCCC)(CO[C@@H]1OC(CO)[C@@H](O[C@H]2OC(CO)[C@@H](O)C(O)C2O)C(O)C1O)CO[C@@H]1OC(CO)[C@@H](O[C@H]2OC(CO)[C@@H](O)C(O)C2O)C(O)C1O (stereo partly drawn) [TMM-C22] yields CMC of ~0.002 mM

====

Item-by-item account of Rh (nm), hydrodynamic radius of micelles
Experiment: Hydrodynamic radius of micelles by dynamic light scattering (DLS)
Format: physicochemical
Conditions: micelles formed by each agent at 1.0 wt %
Report as: number unit

Consider the worked cases shown below.
CCCCCCCCCCC(CCCCCCCCCC)COCC(CO[C@@H]1OC(CO)[C@@H](O[C@H]2OC(CO)[C@@H](O)C(O)C2O)C(O)C1O)(CO[C@@H]1OC(CO)[C@@H](O[C@H]2OC(CO)[C@@H](O)C(O)C2O)C(O)C1O)CSCC(COCC(CCCCCCCCCC)CCCCCCCCCC)(CO[C@@H]1OC(CO)[C@@H](O[C@H]2OC(CO)[C@@H](O)C(O)C2O)C(O)C1O)CO[C@@H]1OC(CO)[C@@H](O[C@H]2OC(CO)[C@@H](O)C(O)C2O)C(O)C1O (stereo partly drawn) [TMM-C22] : 3.6 ± 0.09 nm
CCCCCCCCCCCCC(CCCCCCCCCCCC)COCC(CO[C@@H]1OC(CO)[C@@H](O[C@H]2OC(CO)[C@@H](O)C(O)C2O)C(O)C1O)(CO[C@@H]1OC(CO)[C@@H](O[C@H]2OC(CO)[C@@H](O)C(O)C2O)C(O)C1O)CSCC(COCC(CCCCCCCCCCCC)CCCCCCCCCCCC)(CO[C@@H]1OC(CO)[C@@H](O[C@H]2OC(CO)[C@@H](O)C(O)C2O)C(O)C1O)CO[C@@H]1OC(CO)[C@@H](O[C@H]2OC(CO)[C@@H](O)C(O)C2O)C(O)C1O (stereo partly drawn) [TMM-C26] : 4.3 ± 0.07 nm
CCCCCCCCCCCCO[C@@H]1O[C@H](CO)[C@@H](O[C@H]2O[C@H](CO)[C@@H](O)[C@H](O)[C@H]2O)[C@H](O)[C@H]1O [DDM, n-dodecyl-β-D-maltopyranoside, reference compound] : 3.4 ± 0.03 nm
CCCCCCCCCCCCC(CCCC(CCCCCCCCCCCC)(CO[C@@H]1OC(CO)[C@@H](O)C(O)C1O)CO[C@@H]1OC(CO)[C@@H](O)C(O)C1O)(CO[C@@H]1OC(CO)[C@@H](O)C(O)C1O)CO[C@@H]1OC(CO)[C@@H](O)C(O)C1O (stereo partly drawn) [TMG-A12] : 3.3 ± 0.09 nm
CCCCCCCCCCCCCOCC(CO[C@@H]1OC(CO)[C@@H](O)C(O)C1O)(CO[C@@H]1OC(CO)[C@@H](O)C(O)C1O)CSCC(COCCCCCCCCCCCCC)(CO[C@@H]1OC(CO)[C@@H](O)C(O)C1O)CO[C@@H]1OC(CO)[C@@H](O)C(O)C1O (stereo partly drawn) [TMG-T13] : 3.3 ± 0.08 nm

Looking up CCCCCCCCCCCCCC(CCCC(CCCCCCCCCCCCC)(CO[C@@H]1OC(CO)[C@@H](O)C(O)C1O)CO[C@@H]1OC(CO)[C@@H](O)C(O)C1O)(CO[C@@H]1OC(CO)[C@@H](O)C(O)C1O)CO[C@@H]1OC(CO)[C@@H](O)C(O)C1O (stereo partly drawn) [TMG-A13] , I found its Rh (nm), hydrodynamic radius of micelles recorded as 3.6 ± 0.16 nm

GET /value?item= CC(C)CCC[C@@H](C)C1CCC2C3CCC4CC(OCC(CO[C@@H]5OC(CO)[C@@H](O[C@H]6OC(CO)[C@@H](O)C(O)C6O)C(O)C5O)(CO[C@@H]5OC(CO)[C@@H](O[C@H]6OC(CO)[C@@H](O)C(O)C6O)C(O)C5O)CSCC(COC5CCC6(C)C(CCC7C6CCC6(C)C7CCC6[C@H](C)CCCC(C)C)C5)(CO[C@@H]5OC(CO)[C@@H](O[C@H]6OC(CO)[C@@H](O)C(O)C6O)C(O)C5O)CO[C@@H]5OC(CO)[C@@H](O[C@H]6OC(CO)[C@@H](O)C(O)C6O)C(O)C5O)CCC4(C)C3CCC21C (stereo partly drawn) [TMM-A27] &field=Rh (nm), hydrodynamic radius of micelles returns 4.1 ± 0.10 nm

Sure, the documented Rh (nm), hydrodynamic radius of micelles for CCCCCCCCCCCC(CCCCCCCCCCC)COCC(CO[C@@H]1OC(CO)[C@@H](O[C@H]2OC(CO)[C@@H](O)C(O)C2O)C(O)C1O)(CO[C@@H]1OC(CO)[C@@H](O[C@H]2OC(CO)[C@@H](O)C(O)C2O)C(O)C1O)CSCC(COCC(CCCCCCCCCCC)CCCCCCCCCCC)(CO[C@@H]1OC(CO)[C@@H](O[C@H]2OC(CO)[C@@H](O)C(O)C2O)C(O)C1O)CO[C@@H]1OC(CO)[C@@H](O[C@H]2OC(CO)[C@@H](O)C(O)C2O)C(O)C1O (stereo partly drawn) [TMM-C24] is 3.9 ± 0.08 nm

Measured Rh (nm), hydrodynamic radius of micelles of CCCCCCCCCCCCCCC(CCCC(CCCCCCCCCCCCCC)(CO[C@@H]1OC(CO)[C@@H](O)C(O)C1O)CO[C@@H]1OC(CO)[C@@H](O)C(O)C1O)(CO[C@@H]1OC(CO)[C@@H](O)C(O)C1O)CO[C@@H]1OC(CO)[C@@H](O)C(O)C1O (stereo partly drawn) [TMG-A14] : 3.8 ± 0.10 nm
